study_target: T1, recombinant canine β NGF (canine, UniProt Q29074 110-229 (pig entry))
T1 chain: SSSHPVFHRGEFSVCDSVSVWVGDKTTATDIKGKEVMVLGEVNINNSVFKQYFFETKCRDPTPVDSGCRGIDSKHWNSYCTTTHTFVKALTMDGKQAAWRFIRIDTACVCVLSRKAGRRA
experimental_protocol: cell-based or functional assay
readout_name: IC50, canine NGF-induced TF-1 cell proliferation (70 pM canine NGF) (pM)

Mu72 Canine IgG1/k Chimera (antibody, V domains shown, also called PR-1290646; lot 1785614) VH: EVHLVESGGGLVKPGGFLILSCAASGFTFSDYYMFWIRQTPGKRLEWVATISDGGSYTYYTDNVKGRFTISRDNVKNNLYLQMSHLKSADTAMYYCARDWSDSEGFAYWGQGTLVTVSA VL: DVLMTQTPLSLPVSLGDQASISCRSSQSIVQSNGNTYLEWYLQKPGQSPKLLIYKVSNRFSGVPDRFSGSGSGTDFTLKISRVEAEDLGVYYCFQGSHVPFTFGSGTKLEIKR : 41
Mu77 Canine IgG1/k Chimera (antibody, V domains shown, also called PR-1290656; lot 1785699) VH: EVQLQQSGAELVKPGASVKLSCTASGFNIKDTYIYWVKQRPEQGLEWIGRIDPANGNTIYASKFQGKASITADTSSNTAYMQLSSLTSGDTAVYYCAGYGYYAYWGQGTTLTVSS VL: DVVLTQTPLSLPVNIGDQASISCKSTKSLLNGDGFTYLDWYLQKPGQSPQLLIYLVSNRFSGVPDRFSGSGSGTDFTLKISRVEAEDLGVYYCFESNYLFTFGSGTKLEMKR : 28
Mu81 Canine IgG1/k Chimera (antibody, V domains shown, also called PR-1290657; lot 1778832) VH: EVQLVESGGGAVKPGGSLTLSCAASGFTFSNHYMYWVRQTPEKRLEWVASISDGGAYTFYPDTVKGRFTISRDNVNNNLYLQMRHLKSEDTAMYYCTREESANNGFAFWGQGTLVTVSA VL: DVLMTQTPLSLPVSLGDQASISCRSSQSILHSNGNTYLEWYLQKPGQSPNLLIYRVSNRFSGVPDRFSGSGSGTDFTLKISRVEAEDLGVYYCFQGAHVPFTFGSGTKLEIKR : 12
